measured.target: UniProt:A8MUK1
run.description: ubiquitin-specific protease 17 DUB inhibitors, concentration-effect assay, cell-free, verification of initial screening actives (AID 1645864)
condition.description: purified USP17, ubiquitin-rhodamine cleavage fluorescence, 3 h
Activity calls are given as the source filed them.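 Rule for the calls: active = maximal inhibition of USP17 at or above 30% in the confirmation dose-response, a value not among the printed readouts; inactive = the rest.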
Give your call using only these classes: YES = active, NO = inactive

Problem: Please indicate how the test categorized O=C(Nc1cccc(F)c1)C1CCCN(S(=O)(=O)N2CCCCCC2)C1 (centres undefined) .
Solution: YES

Problem: Please indicate how the test categorized CCOC(=O)N1CCN(S(=O)(=O)c2ccc(C(=O)Nc3ccc(Br)cc3)cc2)CC1 .
Solution: YES

Problem: Please indicate how the test categorized CCN(CC)c1nc(F)c2c(c1F)S(=O)(=O)CCN2Cc1ccccc1 .
Solution: NO

Problem: Please indicate how the test categorized CNC(=O)CC1NC(=O)c2csc(n2)-c2ccc(-c3nc(C4=NC(C(=O)N5CCCC5C(N)=O)CO4)cs3)nc2-c2csc(n2)-c2csc(n2)C(C(O)c2ccccc2)NC(=O)CNC(=O)c2nc(sc2COC)C(C(C)C)NC(=O)c2nc1sc2C (centres undefined) .
Solution: YES

---

This section presents compounds with their documented IC50 values.
measured.target: Ubiquitin carboxyl-terminal hydrolase 17-like protein 5 (Homo sapiens) (UniProt A8MUK1)
Sequence (A8MUK1 whole entry, looked up): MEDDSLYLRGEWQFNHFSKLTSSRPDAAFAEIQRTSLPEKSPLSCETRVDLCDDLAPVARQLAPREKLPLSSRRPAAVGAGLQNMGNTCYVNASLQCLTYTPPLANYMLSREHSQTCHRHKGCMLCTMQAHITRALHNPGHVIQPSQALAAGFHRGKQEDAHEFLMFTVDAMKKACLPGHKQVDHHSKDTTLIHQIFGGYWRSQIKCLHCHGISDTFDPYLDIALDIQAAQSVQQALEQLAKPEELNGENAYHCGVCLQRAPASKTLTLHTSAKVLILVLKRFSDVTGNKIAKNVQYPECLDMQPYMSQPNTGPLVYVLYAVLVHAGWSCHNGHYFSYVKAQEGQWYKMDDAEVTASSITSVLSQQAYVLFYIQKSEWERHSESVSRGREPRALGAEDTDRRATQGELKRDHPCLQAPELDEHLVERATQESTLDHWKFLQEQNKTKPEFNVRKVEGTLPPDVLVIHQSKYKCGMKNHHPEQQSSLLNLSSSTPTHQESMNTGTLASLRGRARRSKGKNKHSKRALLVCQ
run.description: ubiquitin-specific protease 17 DUB inhibitors, concentration-effect assay, cell-free, verification of initial screening actives (AID 1645864)
condition.description: purified USP17, ubiquitin-rhodamine cleavage fluorescence, 3 h
Active and inactive are the calls of the source.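 How the source made its calls: active means maximal inhibition of USP17 at or above 30% in the confirmation dose-response, a value not among the printed readouts; inactive means the rest.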

Recorded results for 10 compounds are shown here.
compound	measured.target	IC50
Cc1ccc(NC(=O)c2ccc3c(c2)N(S(C)(=O)=O)CC3)cc1	Ubiquitin carboxyl-terminal hydrolase 17-like protein 5 (Homo sapiens) (UniProt A8MUK1)	38.3 µM
O=C(c1cscn1)N1CCC2(CC1)CC1(CO2)Nc2ccccc2-n2cccc21 (stereo not given)	Ubiquitin carboxyl-terminal hydrolase 17-like protein 5 (Homo sapiens) (UniProt A8MUK1)	> 50 µM (inactive)
CC1=C(c2ccc(C)c(C)c2)S(=O)(=O)NC1=NCC(=O)NCCc1ccc(C)cc1	Ubiquitin carboxyl-terminal hydrolase 17-like protein 5 (Homo sapiens) (UniProt A8MUK1)	46.1 µM
CC(C)NS(=O)(=O)c1cccc2c(NC(=O)C(Cc3ccccc3)NC(=O)c3ccccc3)cccc12 (stereo not given)	Ubiquitin carboxyl-terminal hydrolase 17-like protein 5 (Homo sapiens) (UniProt A8MUK1)	> 50 µM (inactive)
Cn1c(=O)c2cc(C(=O)Nc3ccc(F)cc3)cnc2n(C)c1=O	Ubiquitin carboxyl-terminal hydrolase 17-like protein 5 (Homo sapiens) (UniProt A8MUK1)	22.9 µM
COc1ccc(C2/C(=C(\O)c3ccccc3)C(=O)C(=O)N2c2nc3ccc(F)cc3s2)cc1 (stereo not given)	Ubiquitin carboxyl-terminal hydrolase 17-like protein 5 (Homo sapiens) (UniProt A8MUK1)	17.9 µM
COc1ccc(CNC(=O)CN2C(=O)C(C)=C(c3ccc(C)cc3)S2(=O)=O)cc1	Ubiquitin carboxyl-terminal hydrolase 17-like protein 5 (Homo sapiens) (UniProt A8MUK1)	> 50 µM (inactive)
CCC(CC)n1[nH]c(=O)c2c1NC(=O)CSC2c1ccc2c(c1)OCO2 (stereo not given)	Ubiquitin carboxyl-terminal hydrolase 17-like protein 5 (Homo sapiens) (UniProt A8MUK1)	18.5 µM
CNC(=O)c1cc2nc(N(C)C)n(-c3ccccc3)c2s1	Ubiquitin carboxyl-terminal hydrolase 17-like protein 5 (Homo sapiens) (UniProt A8MUK1)	> 50 µM (inactive)
CCN(CC)c1cc(C)c2cc(NC(=O)c3ccncc3)ccc2n1	Ubiquitin carboxyl-terminal hydrolase 17-like protein 5 (Homo sapiens) (UniProt A8MUK1)	> 50 µM (inactive)

Lookup result for CN(C)C1CCN(C(=O)c2cc(-c3ccn(-c4ccccc4)n3)n3ccccc23)CC1 ; measured IC50: > 50 µM (inactive)

Lookup result for CC1(C)Cc2c(sc3nc(Cc4ccccc4)nc(SCC(=O)Nc4ccccc4)c23)CO1 ; measured IC50: 2.35 µM

Lookup result for CC(C)c1cc2c(c(O)c1O)[C@@]13CCCC(C)(C)[C@@H]1C[C@@H]2OC3=O ; measured IC50: 19.5 µM

Lookup result for O=C(NCc1nc2ccccc2[nH]1)c1cccc(S(=O)(=O)N2CCc3ccccc32)c1 ; measured IC50: > 50 µM (inactive)

Lookup result for Nc1c(C(=O)NCc2ccc3c(c2)OCO3)nnn1Cc1ccc(Br)cc1F ; measured IC50: 2.8 µM

Lookup result for O=C(CSc1ncnc2c1sc1cccc(F)c12)N1CCCCCC1 ; measured IC50: > 50 µM (inactive)

Lookup result for O=C(CCCn1c(=O)[nH]c2cc(Cl)ccc2c1=O)N1CCc2ccccc2C1 ; measured IC50: 21.5 µM

Lookup result for O=C(CSc1nc2cc(S(=O)(=O)Nc3ccccc3Cl)ccc2o1)Nc1ccc(N2CCOCC2)cc1 ; measured IC50: 48 µM

Lookup result for Cc1nc(C(=O)N[C@@H](C)C(=O)NCc2ccc3c(c2)OCO3)cc2c1[nH]c1ccccc12 ; measured IC50: 27.2 µM

Lookup result for Cc1cccc(C(=O)N2CCc3cc(-c4nc(NC(=O)CN5CCc6ccccc6C5)sc4C)ccc32)c1 ; measured IC50: > 50 µM (inactive)

---

measured.target: Ubiquitin carboxyl-terminal hydrolase 17-like protein 5 (Homo sapiens)
run.description: ubiquitin-specific protease 17 DUB inhibitors, concentration-effect assay, cell-free, verification of initial screening actives (AID 1645864)
condition.description: purified USP17, ubiquitin-rhodamine cleavage fluorescence, 3 h
Activity calls are given as the source filed them.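 Rule for the calls: active = maximal inhibition of USP17 at or above 30% in the confirmation dose-response, a value not among the printed readouts; inactive = the rest.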
Give your call using only these classes: YES = active, NO = inactive

compound	classification
COc1cccc(CNC(=O)C2=Cc3cccc(OC)c3OC2)c1	NO
O=C(NCc1ccccc1)c1ccc(-c2ccc(N3CCCC3)nn2)cc1	NO
CC(=O)c1ccc(NC(=O)/C(=C/c2ccco2)n2nnnc2-c2ccccc2)cc1	NO
COc1cc(NC(=O)Cn2nc(-c3ccc(F)cc3)ccc2=O)ccc1-n1cnnn1	YES
Cc1ccc2oc(=O)c(S(=O)(=O)N3CCCCC3)cc2c1	YES

Problem: Please indicate how the test categorized COc1ccc2nc(Nc3ncc4c(n3)CCCC4=O)nc(C)c2c1 .
Solution: NO

Problem: Please indicate how the test categorized CSc1ncc(C(=O)NC(C)c2ccccc2)c(-c2ccccc2)n1 (stereo not given) .
Solution: YES

Problem: Please indicate how the test categorized CCOc1ccc(NC(=O)c2cc(-c3ccccc3)c(N3CCOCC3)s2)cc1 .
Solution: YES

Problem: Please indicate how the test categorized COc1ccc(CNC(=O)c2ccccc2N2C(=O)N3CCc4c([nH]c5ccccc45)[C@@]3(C)C2=O)cc1 .
Solution: YES

Problem: Please indicate how the test categorized O=C(CSc1ncnc2c1oc1ccccc12)NC1CCCC1 .
Solution: YES

Problem: Please indicate how the test categorized COc1ccccc1-c1nc(-c2cn(-c3ccc(C)cc3)nn2)no1 .
Solution: YES

Problem: Please indicate how the test categorized Cc1ccc(CN2C(=O)c3cc4ccccc4n3CC2(C)C(=O)NCc2ccccc2)o1 (stereo not given) .
Solution: YES

Problem: Please indicate how the test categorized O=C(COc1ccc(S(=O)(=O)N2CCOCC2)cc1)N1CCC(Cc2ccccc2)CC1 .
Solution: NO

Problem: Please indicate how the test categorized CCCC1Cc2c(sc3nc(SCC)nc(N)c23)CO1 (stereo not given) .
Solution: YES

Problem: Please indicate how the test categorized Cc1cccc(N2C(=O)/C(=C\c3ccc4c(c3)OCCO4)c3ccccc3C2=O)c1 .
Solution: YES

---

measured.target: Ubiquitin carboxyl-terminal hydrolase 17-like protein 5 (Homo sapiens)
run.description: ubiquitin-specific protease 17 DUB inhibitors, concentration-effect assay, cell-free, verification of initial screening actives (AID 1645864)
condition.description: purified USP17, ubiquitin-rhodamine cleavage fluorescence, 3 h
Calls of active or inactive are those of the source.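 Rule for the calls: active = maximal inhibition of USP17 at or above 30% in the confirmation dose-response, a value not among the printed readouts; inactive = the rest.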
Give your call using only these classes: Yes for active, No for inactive

compound	classification
O=C1C[C@@H]2O[C@H](CNC(=O)[C@@H]3CN(CCN3C(=O)C3CCOCC3)C(=O)[C@@H]3C[C@@H](CN3Cc3ccc(F)c(F)c3)N1)[C@@H](O)[C@H]2O	No
O=C(CNC(=O)c1cc2ccccc2[nH]1)Nc1ccc2c(c1)OCCO2	Yes
CCCCNC(=O)c1cc2cccnc2n(Cc2ccccc2)c1=O	No
O=C(c1ccc2cc[nH]c2c1)N1CCC(Nc2cccnc2)C1 (stereo not given)	No
Cc1ccc(NC(=O)c2sc(=S)n(CCc3ccccc3)c2N)cc1	Yes

Problem: Please indicate how the test categorized COc1ccc(Cl)cc1NC(=O)Cn1c(=O)cc(C)c2c(C)nn(-c3ccccc3)c21 .
Solution: Yes

Problem: Please indicate how the test categorized Cc1ccccc1Cn1ccc(NC(=O)c2noc(C)c2[N+](=O)[O-])n1 .
Solution: No

---

measured.target: Ubiquitin carboxyl-terminal hydrolase 17-like protein 5 (Homo sapiens) (UniProt A8MUK1)
run.description: ubiquitin-specific protease 17 DUB inhibitors, concentration-effect assay, cell-free, verification of initial screening actives (AID 1645864)
condition.description: purified USP17, ubiquitin-rhodamine cleavage fluorescence, 3 h
Activity calls are given as the source filed them.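 How the source made its calls: active means maximal inhibition of USP17 at or above 30% in the confirmation dose-response, a value not among the printed readouts; inactive means the rest.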
Give your call using only these classes: yes (1) (active), no (0) (inactive)

Would you please look over these solved cases?
smiles.code	classification
COc1ccc(CNc2nn3c(-c4cncc(OC)c4)cnc3s2)cc1	yes (1)
COc1cccc(/C=C/C(=O)Nc2ccc(C)c(Cl)c2)c1	yes (1)

Problem: Please indicate how the test categorized COc1ccc(C(=O)Nc2n[nH]c(C)c2-c2cccc(C)c2)c(OC)c1 .
Solution: yes (1)

Problem: Please indicate how the test categorized Cc1cccc(C(=O)N2CCc3cc(-c4nc(NC(=O)CNc5ccccc5)sc4C)ccc32)c1 .
Solution: no (0)

Problem: Please indicate how the test categorized COc1ccccc1-c1ccc(CN2[C@@H](c3ccccc3)C[C@@H]3NC(=O)CCC[C@H]32)cc1 .
Solution: no (0)
